Parameter vapor or sublimation pressure: see the listing below.
settings: 328.15 K; Liquid; Closed cell (Static) method
Numbers after ± are expanded uncertainties.
metric: vapor or sublimation pressure

[
  {
    "smiles.text": "CCc1ccccc1",
    "result": "5.967 ± 0.03 kPa"
  },
  {
    "smiles.text": "c1ccccc1",
    "result": "43.51 ± 0.082 kPa"
  },
  {
    "smiles.text": "Cc1cccc(C)c1",
    "result": "6.496 ± 0.037 kPa"
  },
  {
    "smiles.text": "Cc1ccccc1",
    "result": "15.14 ± 0.041 kPa"
  }
]

----------
details: 323.15 K; Liquid; Closed cell (Static) method
Parameter vapor or sublimation pressure: see the listing below.

[
  {
    "compound": "Cc1ccccc1 [toluene]",
    "units.symbol": "kPa",
    "vapor or sublimation pressure": 12.31
  },
  {
    "compound": "Cc1ccccc1C [1,2-dimethylbenzene]",
    "units.symbol": "kPa",
    "vapor or sublimation pressure": 3.456
  },
  {
    "compound": "Cc1ccc(C)cc1 [1,4-dimethylbenzene]",
    "units.symbol": "kPa",
    "vapor or sublimation pressure": 4.422
  },
  {
    "compound": "CCc1ccccc1 [ethylbenzene]",
    "units.symbol": "kPa",
    "vapor or sublimation pressure": 4.712
  },
  {
    "compound": "Cc1cccc(C)c1 [1,3-dimethylbenzene]",
    "units.symbol": "kPa",
    "vapor or sublimation pressure": 5.37
  },
  {
    "compound": "c1ccccc1 [benzene]",
    "units.symbol": "kPa",
    "vapor or sublimation pressure": 36.09
  }
]

----------
conditions: 343.15 K; Liquid; Closed cell (Static) method
Output Satisfied for records whose vapor or sublimation pressure is lower than 30 kPa, Not satisfied for records at or above 30 kPa.

[
  {
    "smiles.text": "Cc1ccc(C)cc1",
    "qualitative.label": "Satisfied"
  },
  {
    "smiles.text": "Cc1cccc(C)c1",
    "qualitative.label": "Satisfied"
  },
  {
    "smiles.text": "c1ccccc1",
    "qualitative.label": "Not satisfied"
  },
  {
    "smiles.text": "Cc1ccccc1C",
    "qualitative.label": "Satisfied"
  },
  {
    "smiles.text": "CCc1ccccc1",
    "qualitative.label": "Satisfied"
  },
  {
    "smiles.text": "Cc1ccccc1",
    "qualitative.label": "Satisfied"
  }
]

----------
settings: 353.15 K; Liquid; Closed cell (Static) method
metric: vapor or sublimation pressure (kPa)

[
  {
    "smiles.text": "c1ccccc1",
    "metric": "vapor or sublimation pressure",
    "result.number": 100.91
  },
  {
    "smiles.text": "Cc1cccc(C)c1",
    "metric": "vapor or sublimation pressure",
    "result.number": 15.97
  },
  {
    "smiles.text": "Cc1ccccc1C",
    "metric": "vapor or sublimation pressure",
    "result.number": 12.73
  },
  {
    "smiles.text": "Cc1ccc(C)cc1",
    "metric": "vapor or sublimation pressure",
    "result.number": 15.72
  }
]

----------
settings: 308.15 K; Liquid; Closed cell (Static) method
Parameter vapor or sublimation pressure: see the listing below.

[
  {
    "smiles.text": "CCc1ccccc1",
    "vapor or sublimation pressure, kPa": 2.223
  },
  {
    "smiles.text": "Cc1cccc(C)c1",
    "vapor or sublimation pressure, kPa": 2.631
  },
  {
    "smiles.text": "c1ccccc1",
    "vapor or sublimation pressure, kPa": 19.71
  },
  {
    "smiles.text": "Cc1ccccc1",
    "vapor or sublimation pressure, kPa": 6.257
  }
]
